MEASURED TARGET: human TLR7 (Homo sapiens, UniProt Q9NYK1)
Construct: host or cells: HEK-Blue cells
Sequence (Q9NYK1 27-1049): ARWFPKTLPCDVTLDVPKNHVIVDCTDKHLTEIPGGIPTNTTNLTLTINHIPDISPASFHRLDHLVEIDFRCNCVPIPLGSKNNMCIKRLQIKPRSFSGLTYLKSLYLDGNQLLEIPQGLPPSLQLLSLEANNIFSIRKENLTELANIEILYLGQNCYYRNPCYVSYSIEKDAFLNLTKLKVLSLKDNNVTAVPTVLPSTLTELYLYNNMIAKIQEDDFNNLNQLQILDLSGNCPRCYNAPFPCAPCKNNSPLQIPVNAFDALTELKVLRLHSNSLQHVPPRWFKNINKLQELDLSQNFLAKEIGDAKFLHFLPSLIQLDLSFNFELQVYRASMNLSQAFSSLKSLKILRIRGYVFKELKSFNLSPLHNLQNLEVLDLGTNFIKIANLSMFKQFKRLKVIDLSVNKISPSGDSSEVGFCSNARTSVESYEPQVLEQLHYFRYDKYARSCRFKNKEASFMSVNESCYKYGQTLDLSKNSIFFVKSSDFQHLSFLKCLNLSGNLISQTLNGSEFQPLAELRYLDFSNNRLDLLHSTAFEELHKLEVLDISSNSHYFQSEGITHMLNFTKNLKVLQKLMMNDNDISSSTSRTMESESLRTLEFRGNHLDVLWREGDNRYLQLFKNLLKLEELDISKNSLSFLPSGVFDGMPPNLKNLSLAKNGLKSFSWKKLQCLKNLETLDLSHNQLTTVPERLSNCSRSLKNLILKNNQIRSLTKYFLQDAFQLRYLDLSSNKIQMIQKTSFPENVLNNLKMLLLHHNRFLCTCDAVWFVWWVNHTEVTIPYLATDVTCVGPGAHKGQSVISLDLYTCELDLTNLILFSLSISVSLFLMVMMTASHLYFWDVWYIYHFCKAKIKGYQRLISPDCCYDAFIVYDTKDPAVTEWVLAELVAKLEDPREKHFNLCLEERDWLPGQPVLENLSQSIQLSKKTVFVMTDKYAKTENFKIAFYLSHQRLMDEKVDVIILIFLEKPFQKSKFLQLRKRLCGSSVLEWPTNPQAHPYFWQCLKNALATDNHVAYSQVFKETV
MEASUREMENT NOTES: TLR7 inhibition reporter assay (HEK-Blue cells, SEAP reporter, gardiquimod stimulation)
Format: cell-based
CONDITION DESCRIPTION: HEK-Blue cells overexpressing human TLR7, SEAP reporter, gardiquimod 7.5 μM; read-out: TLR7 IC50
Note to self: use fulfilled only for IC50 readings below 3 nM; a reading exactly at 3 nM still gets not fulfilled.

COMPOUND: Cc1c(-c2[nH]c3sc(C4CCC(N5CC(O)C5)CC4)nc3c2C(C)C)cn2ncnc2c1C (single isomer, unassigned) [Example 225]
QUALITATIVE LABEL: fulfilled

COMPOUND: COc1cc(-c2[nH]c3sc(C4CCC(N5CC6(COC6)C5)CC4)nc3c2C(C)C)cn2ncnc12 (single isomer, unassigned) [Example 68]
QUALITATIVE LABEL: fulfilled

COMPOUND: Cc1c(-c2[nH]c3sc(N4CC5(CN(CC6CCOCC6)C5)C4)nc3c2C(C)C)cn2ncnc2c1C [Example 301]
QUALITATIVE LABEL: not fulfilled

COMPOUND: Cc1c(-c2[nH]c3sc(N4CCN(C(=O)CN(C)C)C[C@@H]4C)nc3c2C(C)C)cn2ncnc2c1C [Example 346]
QUALITATIVE LABEL: not fulfilled

COMPOUND: CCN(C)C1CCC(c2nc3c(C(C)C)c(-c4cc(OC)c5ncnn5c4)[nH]c3s2)CC1 (single isomer, unassigned) [Example 73]
QUALITATIVE LABEL: fulfilled
